# Subject Of Test: Nuclear receptor subfamily 1 group I member 2 (Homo sapiens) (UniProt O75469)
# Sequence (O75469 whole entry, looked up): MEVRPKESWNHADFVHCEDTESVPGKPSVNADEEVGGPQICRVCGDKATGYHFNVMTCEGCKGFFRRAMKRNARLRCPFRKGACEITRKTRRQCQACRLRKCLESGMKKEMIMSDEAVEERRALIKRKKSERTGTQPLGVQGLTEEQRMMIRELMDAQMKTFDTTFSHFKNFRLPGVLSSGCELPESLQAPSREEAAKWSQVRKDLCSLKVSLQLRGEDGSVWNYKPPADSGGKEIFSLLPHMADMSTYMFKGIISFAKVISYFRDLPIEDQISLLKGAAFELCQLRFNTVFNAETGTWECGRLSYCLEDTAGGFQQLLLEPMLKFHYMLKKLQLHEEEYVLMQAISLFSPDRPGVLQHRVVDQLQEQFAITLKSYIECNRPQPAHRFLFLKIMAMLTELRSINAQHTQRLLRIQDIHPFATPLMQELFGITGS
# Test Method Notes: ATG_PXR_TRANS: Attagene TRANS-FACTORIAL HepG2 Assay for human Pregnane X Receptor (PXR) (AID 2283008)
Records with an inconclusive call do not appear. Calls of active or inactive are those of the source. The calls were made as follows: active = hit-call score of the fitted dose curve at least 0.9, where 1 is the maximum; inconclusive = response in the unintended direction; inactive = score below 0.9.
// allowed return values: T for active, F for inactive

Completed entries (count: 3):
[[record]]
compound = "c1ccc(N=NNc2ccccc2)cc1"
qualitative_label = "T"

[[record]]
compound = "COc1ccccc1OC"
qualitative_label = "F"

[[record]]
compound = "CC(=O)OC(c1ccccc1)C(Cl)(Cl)Cl (centres undefined)"
qualitative_label = "T"


--- query ---
Tell me the assay call for Cc1cc(Cl)ccc1O[C@H](C)C(=O)O please.
F

* * *

# Test Method Notes: BSK_LPS_PGE2: BioMAP Diversity Plus: LPS Assay for Prostaglandin E2 (PGE2) Biomarker Activity (AID 2283082);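 as to AC50: secreted prostaglandin E2 measured by ELISA in LPS-stimulated co-culture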
# Study Conditions: primary human HUVEC with PBMC; actives raise or lower the signal
Active and inactive are the calls of the source. Rule for the calls: active = hit-call score of the fitted dose curve at least 0.9, where 1 is the maximum; inactive = score below 0.9.
Reported Metric: AC50

[[record]]
molecule = "O=S(=O)(c1ccc(Cl)cc1)c1ccc(Cl)cc1"
assay_result = "inactive"

[[record]]
molecule = "Nc1ncc([N+](=O)[O-])s1"
assay_result = "inactive"

[[record]]
molecule = "O=[N+]([O-])c1ccc2c3c(cccc13)CC2"
assay_result = "inactive"

[[record]]
molecule = "CC(C)(OO)c1ccccc1"
assay_result = "inactive"

[[record]]
molecule = "CCC(=O)C(CC(C)N(C)C)(c1ccccc1)c1ccccc1 (centres undefined)"
assay_result = "inactive"

[[record]]
molecule = "CCOP(=S)(OCC)SCSP(=S)(OCC)OCC"
assay_result = "inactive"

[[record]]
molecule = "O=C(OC1CCCCC1)c1ccccc1C(=O)OC1CCCCC1"
assay_result = "inactive"

[[record]]
molecule = "CCSC(C)CC1CC(=O)C(C(CC)=NOC/C=C/Cl)=C(O)C1 (centres undefined)"
assay_result = "inactive"


Dear colleague, could you please provide AC50 for the molecules listed below?
1. O=C(O)CCC(F)(C(F)(F)F)C(F)(F)F
2. NC(=O)O
3. COC(=O)c1sccc1S(=O)(=O)NC(=O)Nc1nc(C)nc(OC)n1
4. ClC1=C(Cl)[C@]2(Cl)[C@H]3[C@H]([C@H]4C=C[C@H]3C4)[C@@]1(Cl)C2(Cl)Cl
5. CCOP(=S)(OCC)Oc1ccc(S(C)=O)cc1 (centres undefined)
6. CC(=O)C(Cl)C(=O)N(C)C (centres undefined)
7. COc1cc(OC)nc(NC(=O)NS(=O)(=O)c2ncccc2C(=O)N(C)C)n1
8. ClCC(Cl)CCl

inactive
inactive
inactive
0.142 µM (active)
inactive
7.26 µM (active)
inactive
inactive

* * *

# Read-out: Plasminogen activator inhibitor-1 (PAI1), SERPINE1 (gene 5054)
# Test Method Notes: BSK_hDFCGF_PAI1: BioMAP Diversity Plus: hDFCGF Assay for Plasminogen activator inhibitor-1 (PAI1) Biomarker Activity (AID 2283066)
# Study Conditions: primary human foreskin fibroblasts; actives raise or lower the signal
The source made the active and inactive calls. How the source made its calls: active means hit-call score of the fitted dose curve at least 0.9, where 1 is the maximum; inactive means score below 0.9.
Form entry, call: pick from active, inactive

[[record]]
compound = "O=C(Nc1ccc2[nH]ccc2c1)c1cc2cc(F)ccc2n1Cc1cccc(F)c1"
qualitative_label = "active"


What did this assay record as the result for Oc1c(I)cc(I)cc1I ?
active

Hey, what did the test say about CC1(C)Cc2cccc(O)c2O1 ?
inactive

In this assay, the call recorded for Nc1ccc(-c2ccc(N)c(Cl)c2)cc1Cl was what?
inactive

* * *

# Subject Of Test: Nuclear receptor subfamily 1 group I member 2 (Homo sapiens)
# Test Method Notes: ATG_PXR_TRANS: Attagene TRANS-FACTORIAL HepG2 Assay for human Pregnane X Receptor (PXR) (AID 2283008)
Results filed as inconclusive are left out. The source made the active and inactive calls. The calls were made as follows: active = hit-call score of the fitted dose curve at least 0.9, where 1 is the maximum; inconclusive = response in the unintended direction; inactive = score below 0.9.
The reply should be one of these categories: active, inactive

Recorded test call requested for CCOC(=O)Nc1cccc(OC(=O)Nc2ccccc2)c1
inactive

Fill in: this test's call for CC1(C)Cc2cccc(O)c2O1 is ___
inactive

I'd appreciate the recorded outcome for CCOP(=S)(OCC)SCCS(=O)(=O)CC from this test.
active

Hello, I am checking results. What call was entered for NC(=O)O ?
inactive

Status in this test for CC(=O)C(Cl)C(=O)N(C)C (centres undefined) ?
inactive

* * *

# Read-out: Bcl-2 (BAD) gene, BAD (gene 572)
# Test Method Notes: LTEA_HepaRG_BAD: Life Technologies and Expression Analysis (LTEA) Assay for Bcl-2 (BAD) gene using HepaRG (AID 2283469)
# Study Conditions: mRNA level, 48 h; actives raise or lower the signal
Calls of active or inactive are those of the source. How the source made its calls: active means hit-call score of the fitted dose curve at least 0.9, where 1 is the maximum; inactive means score below 0.9.
Form entry, call: pick from t (active), f (inactive)

[[record]]
compound = "C[C@]12CCC(=O)C[C@@H]1CC[C@@H]1[C@@H]2CC[C@]2(C)[C@@H](O)CC[C@@H]12"
qualitative_label = "f"

[[record]]
compound = "CC(C)(C)c1cc(O)ccc1O"
qualitative_label = "f"

[[record]]
compound = "Oc1cccc2cccnc12"
qualitative_label = "f"

[[record]]
compound = "O=C(O)C(Cl)(Cl)Cl"
qualitative_label = "f"

[[record]]
compound = "O=C(O)C(F)(F)C(F)(F)C(F)(F)C(F)(F)C(F)(F)C(F)(F)F"
qualitative_label = "f"

[[record]]
compound = "CC(C)(c1ccccc1)c1ccc(O)c(C(C)(C)c2ccccc2)c1"
qualitative_label = "f"


Field: outcome | Entry: COc1cc(-c2ccc(N)c(OC)c2)ccc1N
f

Given O=[N+]([O-])c1ccc(O)c([N+](=O)[O-])c1 , state the outcome it received in this test.
f

* * *

# Read-out: Pselectin, SELP (gene 6403)
# Test Method Notes: BSK_4H_Pselectin: BioMAP Diversity Plus: 4H Assay for Pselectin Biomarker Activity (AID 2283026)
# Study Conditions: primary human endothelial cells (HUVEC); actives raise or lower the signal
Active and inactive are the calls of the source. Rule for the calls: active = hit-call score of the fitted dose curve at least 0.9, where 1 is the maximum; inactive = score below 0.9.
I would appreciate it if you answered using one of these outcomes: active, inactive

A selection of reference data follows.
[[record]]
compound = "ClC1(Cl)C2(Cl)C3(Cl)C4(Cl)C(Cl)(Cl)C5(Cl)C3(Cl)C1(Cl)C5(Cl)C24Cl (configuration not stated)"
qualitative_label = "inactive"

[[record]]
compound = "CCC(C)(C)c1ccc(O)c(C(C)(C)CC)c1"
qualitative_label = "active"

[[record]]
compound = "COP(=S)(OC)Oc1c(Cl)cc(C)cc1Cl"
qualitative_label = "active"

[[record]]
compound = "C=CC(=O)OCCCCCC(C)C"
qualitative_label = "inactive"

[[record]]
compound = "Cc1ccccc1N"
qualitative_label = "inactive"

[[record]]
compound = "CCCCCCCCc1ccc(O)cc1"
qualitative_label = "active"


Give the logged outcome of this assay for the following compound: O=C(OC1CCCCC1)c1ccccc1C(=O)OC1CCCCC1
active

* * *

# Test Method Notes: ATG_Ets_CIS: Attagene CIS-FACTORIAL HepG2 Assay for human Erythroblast Transformation Specific (ETS) (AID 2282941)
# Study Conditions: HepG2 ETS cis-reporter transcription, actives raise or lower the signal
Activity calls are given as the source filed them. How the source made its calls: active means hit-call score of the fitted dose curve at least 0.9, where 1 is the maximum; inactive means score below 0.9.
Your answer must be one of the following: active, inactive

Sample answers from the record:
[[record]]
molecule = "N#CCc1ccc(Cl)cc1"
qualitative_label = "inactive"

[[record]]
molecule = "COP(=O)(OC)O/C(=C\\Cl)c1cc(Cl)c(Cl)cc1Cl"
qualitative_label = "inactive"

[[record]]
molecule = "CC(=O)c1cc(C(C)(C)C)cc2c1CCC2(C)C"
qualitative_label = "inactive"

[[record]]
molecule = "Nc1ccc(Cl)cc1C(=O)c1ccccc1"
qualitative_label = "inactive"

[[record]]
molecule = "CCN(CC)C(=O)Cl"
qualitative_label = "inactive"


Which outcome was assigned to O=C(O)C(Cl)(Cl)Cl in this test?
inactive

Please share the test call associated with CNC .
inactive

Which outcome did this test record for the molecule COP(=S)(OC)Oc1ccc(S(=O)(=O)N(C)C)cc1 ?
inactive

Name the outcome recorded for Fc1ccc(C2(Cn3cncn3)OC2c2ccccc2Cl)cc1 (configuration not stated) in the assay.
inactive

Which outcome did this test record for the molecule O=P(O)(O)CN(CP(=O)(O)O)CP(=O)(O)O ?
inactive

GET /call?item= Cc1ccccc1C(=O)Nc1cccc(OC(C)C)c1 returns the recorded outcome of this test.
inactive

For C[C@H]1CCCC(=O)CCC/C=C/c2cc(O)cc(O)c2C(=O)O1 , what call appears in the results of this test?
active

Returns: the outcome recorded for CCCCCCCCC(=O)NCc1ccc(O)c(OC)c1 in this assay.
inactive

* * *

# Read-out: cysteine-aspartic acid protease (CASP8), CASP8 (gene 841)
# Test Method Notes: LTEA_HepaRG_CASP8: Life Technologies and Expression Analysis (LTEA) Assay for cysteine-aspartic acid protease (CASP8) using HepaRG (AID 2283480)
# Study Conditions: mRNA level, 48 h; actives raise or lower the signal
Activity calls are given as the source filed them. The calls were made as follows: active = hit-call score of the fitted dose curve at least 0.9, where 1 is the maximum; inactive = score below 0.9.
Reported Metric: outcome

[[record]]
compound = "NC(=O)O"
reported_metric = "outcome"
assay_result = "inactive"

[[record]]
compound = "O=c1[nH]c(=O)[nH]c(=O)[nH]1"
reported_metric = "outcome"
assay_result = "inactive"

[[record]]
compound = "O=C(O)C(F)(F)C(F)(F)C(F)(F)C(F)(F)C(F)(F)C(F)(F)F"
reported_metric = "outcome"
assay_result = "inactive"

[[record]]
compound = "CCOP(=S)(OCC)SCSP(=S)(OCC)OCC"
reported_metric = "outcome"
assay_result = "inactive"

